# MEASUREMENT_TARGET: HIV-1-Protease (Human immunodeficiency virus type 1 group M subtype B, UniProt P04585)
# Construct: Gereinigte HIV-Protease wurde mit synthetischem Peptid
# PROTOCOL_NOTES: HIV-specific protease enzyme test (purified HIV protease, synthetic peptide substrate, RP-HPLC analysis of cleavage products)
# Format: biochemical
# COND: purified HIV protease, synthetic peptide imitating a Gag precursor cleavage site; concentration giving 50% inhibition of protease activity; read-out: HIV-1-Protease-Inhibition IC50
pIC50: −log10 of the molar value.
Label false if pIC50 falls below 8; label true in every other case.

[
  {
    "MOLECULE": "NC(=O)C[C@H](NC(=O)OC1C=CS(=O)(=O)C1)C(=O)N[C@@H](Cc1ccccc1)[C@H](O)CN1[C@H](C(F)(F)F)C[C@@H]2CCC[C@@H]21 (stereo partly drawn) [Beispiel 4]",
    "CLASS_NAME": "true"
  },
  {
    "MOLECULE": "O=C(N[C@@H](Cc1ccccc1)[C@H](O)CN1[C@H](C(F)(F)F)C[C@@H]2CCC[C@@H]21)O[C@H]1CCOC1 [Beispiel 6]",
    "CLASS_NAME": "false"
  },
  {
    "MOLECULE": "O=C(N[C@@H](Cc1ccccc1)[C@H](O)CN1[C@H](C(F)(F)F)C[C@@H]2CCC[C@@H]21)OC1C=CS(=O)(=O)C1 (stereo partly drawn) [Beispiel 8]",
    "CLASS_NAME": "true"
  },
  {
    "MOLECULE": "NC(=O)C[C@H](NC(=O)O[C@H]1CCOC1)C(=O)N[C@@H](Cc1ccccc1)[C@H](O)CN1[C@H](C(F)(F)F)C[C@@H]2CCC[C@@H]21 [Beispiel 2]",
    "CLASS_NAME": "true"
  },
  {
    "MOLECULE": "O=C(N[C@@H](Cc1ccccc1)[C@H](O)CN1[C@H](C(F)(F)F)C[C@@H]2CCC[C@@H]21)OC1CCS(=O)(=O)C1 (stereo partly drawn) [Beispiel 7]",
    "CLASS_NAME": "false"
  }
]
